The following compounds are shown together with reported IC50 values.
target: EGFR (Homo sapiens); construct: Kinases are expressed as either kinase domains or full length constructs; made in house; assay: Kinase inhibition assay (33P transfer), EGFR; format: biochemical; details: Table 2, kinase inhibition class; read-out: EGFR-1

Reference set (2 entries):
SMILES_STRING	IC50
CN(c1cccc(Cl)c1)c1ncnc(Nc2cccc(Cc3nnn[nH]3)c2)n1	< 1.02 µM
COC(=O)c1sccc1Nc1ncnc(N2CCCc3cc(C)ccc32)n1	> 11.8 µM

I am curious: what IC50 value has been reported for Brc1ccc(Nc2ncnc(-n3cccc3)n2)cc1 ?
> 14.2 µM

State the recorded IC50 for this entry: O=C(O)Cc1cccc(Nc2ncnc(Nc3cccc(Br)c3)n2)c1
< 0.999 µM

# input compound: COc1cc(Nc2ncnc(Nc3ccc4c(cnn4C)c3)n2)cc(OC)c1OC ; wanted: its IC50
0.982 to 5.89 µM

====

Measured IC50 accompanies every entry in the list below.
target: Lck (Homo sapiens); construct: Kinases are expressed as either kinase domains or full length constructs; made in house; assay: Kinase inhibition assay (33P transfer), Lck; assay type: biochemical; conditions: Table 3, class symbols; read-out: Lck-1

Example entries begin here.
MOLECULE	EXPERIMENTAL_SYSTEM	EXPERIMENTAL_ENDPOINT	DATA_VALUE
Fc1ccc(CNc2ncccc2-c2ncnc(Nc3ccc4[nH]ncc4c3)n2)cc1 [Compound 1108]	Lck (Homo sapiens)	IC50	5.82 to 8.49 µM
CCOC(=O)c1cccc(Nc2ncnc(Nc3cc(-c4ccc(C(=O)OC)cc4)n[nH]3)n2)c1 [Compound 813]	Lck (Homo sapiens)	IC50	> 9.79 µM
CN(c1ccc2c(cnn2Cc2ccccc2)c1)c1ncnc(Nc2cccc(Cc3nnn[nH]3)c2)n1 [Compound 671]	Lck (Homo sapiens)	IC50	7.15 to 9.19 µM

// next entry
So what's the measured IC50 for this one? c1ccc(CNc2ncccc2-c2ncnc(Nc3ccc(N4CCOCC4)cc3)n2)cc1 [Compound 1105]
> 10.2 µM

====

target: Lyn (Homo sapiens); construct: Kinases are expressed as either kinase domains or full length constructs; made in house; test: Kinase inhibition assay (33P transfer), Lyn; type: biochemical; conditions: Table 6, Lyn-1 kinase inhibition class
Sequence (P07948 whole entry, species assumed, the tested form may be a part): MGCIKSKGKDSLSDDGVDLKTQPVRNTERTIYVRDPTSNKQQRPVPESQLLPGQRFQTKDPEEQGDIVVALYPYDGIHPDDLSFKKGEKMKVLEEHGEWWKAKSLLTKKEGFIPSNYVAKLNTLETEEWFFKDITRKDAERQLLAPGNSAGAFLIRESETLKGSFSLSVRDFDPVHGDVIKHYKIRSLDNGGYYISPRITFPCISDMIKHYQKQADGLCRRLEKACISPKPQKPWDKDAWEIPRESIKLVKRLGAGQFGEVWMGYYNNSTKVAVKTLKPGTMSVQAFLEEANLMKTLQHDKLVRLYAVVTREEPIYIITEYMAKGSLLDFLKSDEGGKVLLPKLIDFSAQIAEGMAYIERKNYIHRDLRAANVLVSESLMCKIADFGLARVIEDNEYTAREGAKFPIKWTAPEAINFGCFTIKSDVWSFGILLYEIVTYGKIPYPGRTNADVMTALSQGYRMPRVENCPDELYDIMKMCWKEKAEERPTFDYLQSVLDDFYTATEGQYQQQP
pIC50: −log10 of the molar value.
Reported pIC50 values follow for various molecules

These solved cases illustrate the format of a correct answer.
MOLECULE	EXPERIMENTAL_SYSTEM	pIC50
COc1cc(Nc2ncnc(-n3c(N)nc4ccccc43)n2)cc(OC)c1OC [Compound 289]	Lyn (Homo sapiens)	5.05 to 5.21
COc1cc(Nc2ncnc(-n3c(NCc4ccncc4)nc4ccccc43)n2)cc(OC)c1OC [Compound 413]	Lyn (Homo sapiens)	5.31 to 6.08
COc1cc(Nc2ncnc(Nc3ccc4[nH]ccc4c3)n2)cc(OC)c1OC [Compound 928]	Lyn (Homo sapiens)	> 5.99
C=CCNc1ncccc1-c1ncnc(Nc2cc(OC)c(OC)c(OC)c2)n1 [Compound 1076]	Lyn (Homo sapiens)	< 4.94
COc1cc(Nc2ncnc(Nc3cc(-c4cccs4)n[nH]3)n2)cc(OC)c1OC [Compound 318]	Lyn (Homo sapiens)	> 6.03
CCC(Nc1nc2ccccc2n1-c1ncnc(Nc2cc(OC)c(OC)c(OC)c2)n1)c1ccccc1 (centres unmarked) [Compound 592]	Lyn (Homo sapiens)	5.33 to 6.11
COc1cc(Nc2ncnc(Nc3ccc(C)cc3F)n2)cc(OC)c1OC [Compound 937]	Lyn (Homo sapiens)	> 5.98

Now consider the entry below.
Given the molecule COCCOc1ccc(Nc2ncnc(-n3c(N)nc4ccccc43)n2)cc1OCCOC [Compound 302] , what is its reported pIC50?
< 5.00

====

biological target: Zap-70 (Homo sapiens, UniProt P43403); construct: Kinases are expressed as either kinase domains or full length constructs; made in house; experiment: Kinase inhibition assay (33P transfer), Zap-70; assay type: biochemical; conditions: read-out: Zap-1
Sequence (P43403 whole entry, species assumed, the tested form may be a part): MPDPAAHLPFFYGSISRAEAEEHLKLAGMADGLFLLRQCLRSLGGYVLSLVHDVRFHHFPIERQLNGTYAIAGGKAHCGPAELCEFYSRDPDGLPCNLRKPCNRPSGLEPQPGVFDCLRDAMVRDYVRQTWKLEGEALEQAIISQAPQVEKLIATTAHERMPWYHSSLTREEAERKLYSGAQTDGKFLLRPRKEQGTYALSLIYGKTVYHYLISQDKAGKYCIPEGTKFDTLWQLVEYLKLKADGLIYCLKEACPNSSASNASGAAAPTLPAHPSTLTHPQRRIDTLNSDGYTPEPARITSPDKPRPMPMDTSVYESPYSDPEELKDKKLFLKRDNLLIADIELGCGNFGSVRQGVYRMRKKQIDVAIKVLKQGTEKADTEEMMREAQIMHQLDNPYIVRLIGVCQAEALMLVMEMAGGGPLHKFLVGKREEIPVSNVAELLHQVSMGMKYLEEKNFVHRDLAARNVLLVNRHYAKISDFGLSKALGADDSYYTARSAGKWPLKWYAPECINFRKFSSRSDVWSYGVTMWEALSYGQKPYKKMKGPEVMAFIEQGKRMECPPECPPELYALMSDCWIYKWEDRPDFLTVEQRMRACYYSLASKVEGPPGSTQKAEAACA
EXPERIMENTAL_ENDPOINT: IC50

Worked cases, IC50 given:
SMILES_STRING	IC50
Nc1nc2ccccc2n1-c1ncnc(Nc2cccnc2)n1	> 14.8 µM
COc1cc(Nc2ncnc(NCc3ccccc3)n2)cc(OC)c1OC	> 12.2 µM
COC(=O)Cc1cccc(Nc2ncnc(-n3c(N)nc4ccccc43)n2)c1	9.32 to 12 µM
CCN(CC)CCOc1cc(Nc2ncnc(Nc3cc(OC)c(OC)c(OC)c3)n2)ccc1OC	> 9.03 µM
COc1cc(Nc2ncnc(-n3nc(-c4ccccc4)cc3N)n2)cc(OC)c1OC	> 10.7 µM

Fill in the blank: the reported IC50 of COc1ccc(-c2ncnc(Nc3cc(OC)c(OC)c(OC)c3)n2)cc1OC is ____.
> 11.3 µM

Data request, read-out IC50, for COc1cc(Nc2ncnc(Nc3cc(C(F)(F)F)ccc3F)n2)cc(OC)c1OC
> 10.2 µM

# lookup: IC50 of COc1cc(Nc2ncnc(-n3c(NCc4ncc[nH]4)nc4ccccc43)n2)cc(OC)c1OC
> 9.5 µM

====

Measured IC50 values are reported for all entries that follow.
biological target: c-Met (Homo sapiens, UniProt P08581); construct: Kinases are expressed as either kinase domains or full length constructs; made in house; assay: Kinase inhibition assay (33P transfer), c-Met; assay type: biochemical; conditions: Table 2, kinase inhibition class; read-out: Met-1
Sequence (P08581 25-1390): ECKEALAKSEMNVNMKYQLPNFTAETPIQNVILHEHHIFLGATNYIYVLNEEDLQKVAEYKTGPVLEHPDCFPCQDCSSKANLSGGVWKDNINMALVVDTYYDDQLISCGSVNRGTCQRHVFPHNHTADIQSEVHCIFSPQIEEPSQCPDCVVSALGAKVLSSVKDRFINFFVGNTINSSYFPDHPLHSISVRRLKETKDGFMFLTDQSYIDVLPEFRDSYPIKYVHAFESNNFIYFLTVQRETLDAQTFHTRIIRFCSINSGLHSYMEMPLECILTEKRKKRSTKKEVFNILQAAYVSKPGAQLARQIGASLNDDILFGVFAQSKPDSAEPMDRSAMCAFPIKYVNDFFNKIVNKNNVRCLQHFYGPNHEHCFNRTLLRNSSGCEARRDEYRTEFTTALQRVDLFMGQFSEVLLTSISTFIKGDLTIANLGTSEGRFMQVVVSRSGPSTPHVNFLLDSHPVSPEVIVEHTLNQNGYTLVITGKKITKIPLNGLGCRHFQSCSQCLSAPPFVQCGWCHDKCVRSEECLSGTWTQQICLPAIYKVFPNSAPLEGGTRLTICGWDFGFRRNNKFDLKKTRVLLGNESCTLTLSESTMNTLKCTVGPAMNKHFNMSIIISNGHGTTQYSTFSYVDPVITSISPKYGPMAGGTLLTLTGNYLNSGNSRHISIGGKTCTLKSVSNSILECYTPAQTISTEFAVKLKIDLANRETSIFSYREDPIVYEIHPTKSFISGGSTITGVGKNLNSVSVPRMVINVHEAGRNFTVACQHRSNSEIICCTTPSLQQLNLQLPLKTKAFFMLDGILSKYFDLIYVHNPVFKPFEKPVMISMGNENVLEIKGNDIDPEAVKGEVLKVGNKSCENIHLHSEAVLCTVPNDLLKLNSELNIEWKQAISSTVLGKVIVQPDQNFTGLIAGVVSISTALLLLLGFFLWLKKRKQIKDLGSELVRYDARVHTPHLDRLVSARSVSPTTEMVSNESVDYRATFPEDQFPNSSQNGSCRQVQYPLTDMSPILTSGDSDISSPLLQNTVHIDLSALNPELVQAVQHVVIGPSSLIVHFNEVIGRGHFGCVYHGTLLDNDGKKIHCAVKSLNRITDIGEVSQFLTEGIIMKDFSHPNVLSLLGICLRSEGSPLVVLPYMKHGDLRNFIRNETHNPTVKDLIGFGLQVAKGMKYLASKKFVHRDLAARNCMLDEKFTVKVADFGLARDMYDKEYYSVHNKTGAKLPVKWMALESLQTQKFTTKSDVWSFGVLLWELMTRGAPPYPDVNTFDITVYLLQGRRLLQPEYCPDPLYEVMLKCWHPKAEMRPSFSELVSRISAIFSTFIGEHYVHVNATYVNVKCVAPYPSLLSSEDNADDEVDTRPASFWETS

SMILES_STRING	IC50
Cc1cccc(Nc2ncnc(Nc3cc(-c4ccccc4)n[nH]3)n2)c1	1.16 to 6.99 µM

Fill in: IC50 of Nc1nc2ccccc2n1-c1ncnc(Nc2ccc(-c3cnco3)cc2)n1 is ___
1.08 to 6.48 µM

What value of IC50 has been reported for the following compound? COC(=O)c1ccc(Nc2ncnc(-c3ccccc3)n2)cc1
> 14.7 µM

Form field: reported IC50 of COc1cc(Nc2ncnc(Nc3cccc(O)c3)n2)cc(OC)c1OC
> 12.2 µM

Dear colleague, I am looking for the recorded IC50 of the following compound: COc1cc(Nc2ncnc(Nc3ccc4c(cnn4C)c3)n2)cc(OC)c1OC
> 11 µM

# get_value(readout='IC50', item= COc1cc(Nc2ncnc(N3CCN(C(=O)OC(C)(C)C)CC3)n2)cc(OC)c1OC )
> 10.1 µM

Endpoint output: IC50 of CC(C)(C)c1cc(Nc2ncnc(Cl)n2)[nH]n1 . Value?
> 17.8 µM

Would you kindly share the measured IC50 for COc1cc(Nc2ncnc(Cl)n2)cc(OC)c1OC ?
> 15.2 µM

Entry under review: COc1cc(Nc2ncnc(-n3c(=O)[nH]c4ccccc43)n2)cc(OC)c1OC . Reported IC50?
> 11.4 µM

====

target: PDGFRB (Homo sapiens); construct: Kinases are expressed as either kinase domains or full length constructs; made in house; test: Kinase inhibition assay (33P transfer), PDGFRB; format: biochemical; settings: read-out: PDGFRB-1
Sequence (P09619 33-1106, species assumed): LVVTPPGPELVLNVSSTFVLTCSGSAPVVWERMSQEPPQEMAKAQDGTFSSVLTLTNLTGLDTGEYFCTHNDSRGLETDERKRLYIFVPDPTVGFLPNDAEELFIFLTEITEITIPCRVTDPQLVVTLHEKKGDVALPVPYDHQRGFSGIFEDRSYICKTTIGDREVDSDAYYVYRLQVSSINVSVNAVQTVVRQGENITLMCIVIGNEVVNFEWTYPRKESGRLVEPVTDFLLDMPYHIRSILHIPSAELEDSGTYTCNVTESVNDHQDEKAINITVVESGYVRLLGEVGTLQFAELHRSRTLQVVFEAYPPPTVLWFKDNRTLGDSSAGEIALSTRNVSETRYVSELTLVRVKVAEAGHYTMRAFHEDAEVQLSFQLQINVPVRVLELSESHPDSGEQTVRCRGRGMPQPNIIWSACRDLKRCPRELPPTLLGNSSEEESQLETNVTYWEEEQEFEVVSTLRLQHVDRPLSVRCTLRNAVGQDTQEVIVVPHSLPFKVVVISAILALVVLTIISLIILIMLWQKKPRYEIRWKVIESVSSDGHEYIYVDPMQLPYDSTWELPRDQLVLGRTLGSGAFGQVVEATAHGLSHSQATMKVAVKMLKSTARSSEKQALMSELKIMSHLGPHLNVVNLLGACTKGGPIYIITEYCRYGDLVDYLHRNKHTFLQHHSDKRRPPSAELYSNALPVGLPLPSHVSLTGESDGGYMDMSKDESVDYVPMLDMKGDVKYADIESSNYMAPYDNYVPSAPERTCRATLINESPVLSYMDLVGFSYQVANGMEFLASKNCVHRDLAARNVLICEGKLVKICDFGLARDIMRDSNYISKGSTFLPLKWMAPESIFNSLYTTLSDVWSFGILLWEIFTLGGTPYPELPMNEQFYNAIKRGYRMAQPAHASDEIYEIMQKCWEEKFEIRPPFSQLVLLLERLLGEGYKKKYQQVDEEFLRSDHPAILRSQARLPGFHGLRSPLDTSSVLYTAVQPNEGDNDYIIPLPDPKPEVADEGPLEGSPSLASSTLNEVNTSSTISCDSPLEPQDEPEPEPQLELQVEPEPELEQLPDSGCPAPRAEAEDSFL
pIC50: −log10 of the molar value.
EXPERIMENTAL_ENDPOINT: pIC50

Below, 7 compounds whose answers are already recorded.
COMPOUND	pIC50
COc1cc(Nc2ncnc(Nc3cc(C)c(O)cc3C)n2)cc(OC)c1OC [Compound 94]	5.22 to 6.00
COc1cc(Nc2ncnc(-n3c(N)nc4ccccc43)n2)ccc1OCCN1CCOCC1 [Compound 650]	5.28 to 6.06
COc1ccc(Nc2ncnc(Nc3cc(OC)c(OC)c(OC)c3)n2)cc1O [Compound 931]	> 6.00
COc1ccc(Nc2ncnc(Nc3ccc(N(C)C)cc3)n2)cc1OC [Compound 114]	< 4.91
CCOc1ccc(Nc2ncnc(Nc3ccc(C)c(O)c3)n2)cc1OCC [Compound 121]	> 5.98
COc1cc(Nc2ncnc(-n3c(NCc4ccc(Cl)cc4C)nc4ccccc43)n2)cc(OC)c1OC [Compound 597]	5.18 to 5.35
COc1cc(Nc2ncnc(-n3nc(-c4ccccc4)cc3N)n2)cc(OC)c1OC [Compound 520]	< 4.97

Can you share its pIC50? I mean this compound: COc1cc(Nc2ncnc(-n3c(NCc4ccc(Cl)cc4F)nc4ccccc43)n2)cc(OC)c1OC [Compound 606]
5.35 to 6.13

====

target: Lck (Homo sapiens, UniProt P06239); construct: Kinases are expressed as either kinase domains or full length constructs; made in house; assay: Kinase inhibition assay (33P transfer), Lck; type: biochemical; conditions: Table 3; read-out: Lck-1
Sequence (P06239 whole entry, species assumed, the tested form may be a part): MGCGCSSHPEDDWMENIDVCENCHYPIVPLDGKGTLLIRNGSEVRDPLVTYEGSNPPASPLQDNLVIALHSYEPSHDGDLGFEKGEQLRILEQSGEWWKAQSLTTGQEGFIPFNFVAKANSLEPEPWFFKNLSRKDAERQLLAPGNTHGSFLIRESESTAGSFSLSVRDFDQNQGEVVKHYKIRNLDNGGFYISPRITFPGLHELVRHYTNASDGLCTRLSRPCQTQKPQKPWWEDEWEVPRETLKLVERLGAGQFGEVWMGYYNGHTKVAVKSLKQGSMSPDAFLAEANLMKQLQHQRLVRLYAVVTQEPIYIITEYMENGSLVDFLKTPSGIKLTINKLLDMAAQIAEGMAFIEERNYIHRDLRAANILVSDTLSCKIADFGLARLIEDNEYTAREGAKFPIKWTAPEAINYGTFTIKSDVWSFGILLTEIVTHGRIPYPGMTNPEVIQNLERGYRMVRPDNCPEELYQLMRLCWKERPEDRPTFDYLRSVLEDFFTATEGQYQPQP
pIC50: −log10 of the molar value.
EXPERIMENTAL_ENDPOINT: pIC50

SMILES_STRING	EXPERIMENTAL_SYSTEM	pIC50
COc1cc(Nc2ncnc(Nc3ccc(OCc4ccccc4)cc3)n2)cc(OC)c1	Lck (Homo sapiens, UniProt P06239)	4.98 to 5.09

Looking for the measured pIC50 of COc1cccc(Nc2ncnc(-c3cccs3)n2)n1 , can you help?
< 4.80

Field request: pIC50 | item: NS(=O)(=O)c1ccc(CNc2ncnc(-n3c(=O)[nH]c4ccccc43)n2)cc1
< 4.95

For COc1cc(Nc2ncnc(Nc3cc(-c4cccs4)n[nH]3)n2)cc(OC)c1OC , what is its reported pIC50?
5.25 to 6.03
